# experiment-notes: ATG_E_Box_CIS: Attagene CIS-FACTORIAL HepG2 Assay for human Enhancer Box (E-box) (AID 2282936)
# details: HepG2 E-box cis-reporter transcription, actives raise or lower the signal
The source made the active and inactive calls. Rule for the calls: active = hit-call score of the fitted dose curve at least 0.9, where 1 is the maximum; inactive = score below 0.9.
Possible outcomes: TRUE = active, FALSE = inactive

compound=N#CCCOCCC#N assigned_class=FALSE
compound=NCC(F)(F)C(F)(F)C(F)(F)C(F)(F)C(F)(F)C(F)(F)C(F)(F)C(F)(F)F assigned_class=FALSE
compound=CSc1ccc(O)cc1C assigned_class=FALSE
compound=CCc1ccc(C)nc1 assigned_class=FALSE
compound=O=C(O)CCC(F)(F)C(F)(F)C(F)(F)F assigned_class=FALSE
compound=O=S(=O)(OCC(F)(F)F)C(F)(F)C(F)(F)C(F)(F)C(F)(F)F assigned_class=FALSE
compound=CCCCCCCCCCCCCC[P+](CCCC)(CCCC)CCCC assigned_class=FALSE
compound=NC(=O)C(F)(F)C(F)(F)C(F)(F)C(F)F assigned_class=FALSE
compound=CCN(CC)c1ccc(N=Nc2ccccc2)cc1 assigned_class=TRUE
compound="CCc1cccc(C)c1N(C(=O)C(=O)O)C(C)COC (configuration not stated)" assigned_class=FALSE
compound=CC(=O)c1ccccc1N assigned_class=FALSE
compound=CCCCCCCCCc1ccc(OCCO)cc1 assigned_class=TRUE
compound="CC(O)C#CC(C)O (configuration not stated)" assigned_class=TRUE
compound=CCCCCCCCn1sc(Cl)c(Cl)c1=O assigned_class=FALSE
compound=N#Cc1ccccc1O assigned_class=FALSE
compound=Cc1ccc(S(=O)(=O)C(I)I)cc1 assigned_class=TRUE
compound=Cc1ccc([N+](=O)[O-])c(C)c1 assigned_class=FALSE
compound=O=S(=O)(Cl)C(F)(F)C(F)(F)C(F)(F)C(F)(F)C(F)(F)C(F)(F)C(F)(F)C(F)(F)F assigned_class=FALSE
compound=CC(C)C(=O)OCc1ccccc1 assigned_class=FALSE
compound="CC1=CC2C3C=CC(C3)C2C1C (configuration not stated)" assigned_class=FALSE
compound=C=CC(=O)OCC(F)(F)C(F)(F)C(F)(F)C(F)(F)C(F)(F)C(F)(F)C(F)(F)C(F)F assigned_class=FALSE
compound=C[Si](Cl)(Cl)CCC(F)(F)C(F)(F)C(F)(F)C(F)(F)C(F)(F)C(F)(F)F assigned_class=FALSE
compound=Cc1ccc(O)cn1 assigned_class=FALSE
compound=CC(C)(C)c1cc(CCC(=O)NCCCCCCNC(=O)CCc2cc(C(C)(C)C)c(O)c(C(C)(C)C)c2)cc(C(C)(C)C)c1O assigned_class=FALSE
compound=CCC/C=C/CO assigned_class=FALSE
compound=O=C(Cl)C(F)(F)C(F)(F)C(F)(F)C(F)(F)C(F)(F)C(F)(F)C(F)(F)F assigned_class=FALSE
compound=CN1CN(C)CN(C)C1 assigned_class=FALSE

* * *

# target-desc: Hepatocyte nuclear factor 3-beta (Homo sapiens)
# experiment-notes: ATG_FoxA2_CIS: Attagene CIS-FACTORIAL HepG2 Assay for human Forkhead box A2 (FOXA2) (AID 2282942)
# details: HepG2 cis-reporter transcription factor activity, 24 h; actives raise or lower the signal
Activity calls are given as the source filed them. Rule for the calls: active = hit-call score of the fitted dose curve at least 0.9, where 1 is the maximum; inactive = score below 0.9.
Possible outcomes: 1 = active, -1 = inactive

compound=CCN=C1C=CC(=C(c2ccc(N(CC)CC)cc2)c2ccc(N(CC)CC)cc2)c2ccccc21 target_desc="Hepatocyte nuclear factor 3-beta (Homo sapiens)" assigned_class=-1
compound="FC(F)(F)C(F)(F)C(F)(F)CC1CO1 (stereo not drawn)" target_desc="Hepatocyte nuclear factor 3-beta (Homo sapiens)" assigned_class=-1
compound=CCCCCCCCCc1ccc(OCCO)cc1 target_desc="Hepatocyte nuclear factor 3-beta (Homo sapiens)" assigned_class=1
compound=CCCCCCCCCCCCCCCCC target_desc="Hepatocyte nuclear factor 3-beta (Homo sapiens)" assigned_class=-1
compound=CCCC(=O)OCC(COC(=O)CCC)OC(=O)CCC target_desc="Hepatocyte nuclear factor 3-beta (Homo sapiens)" assigned_class=-1
compound=OCCCCC(F)(F)C(F)(F)C(F)(F)C(F)(F)F target_desc="Hepatocyte nuclear factor 3-beta (Homo sapiens)" assigned_class=-1
compound=O=S(=O)(O)c1ccc(Cl)cc1 target_desc="Hepatocyte nuclear factor 3-beta (Homo sapiens)" assigned_class=-1
compound=CCCCCCCCCCCCCC[P+](CCCC)(CCCC)CCCC target_desc="Hepatocyte nuclear factor 3-beta (Homo sapiens)" assigned_class=-1
compound=CCN(CC)c1ccc(C=O)c(O)c1 target_desc="Hepatocyte nuclear factor 3-beta (Homo sapiens)" assigned_class=-1
compound=CO[Si](C)(CCC(F)(F)C(F)(F)C(F)(F)C(F)(F)C(F)(F)C(F)(F)F)OC target_desc="Hepatocyte nuclear factor 3-beta (Homo sapiens)" assigned_class=-1
compound=OCC(F)(F)C(F)(F)C(F)(F)C(F)(F)C(F)(F)C(F)(F)CO target_desc="Hepatocyte nuclear factor 3-beta (Homo sapiens)" assigned_class=-1
compound=Cc1ccc([N+](=O)[O-])c(C)c1 target_desc="Hepatocyte nuclear factor 3-beta (Homo sapiens)" assigned_class=-1
compound=C=C(C)C(=O)OCC(F)(F)C(F)(F)C(F)(F)C(F)F target_desc="Hepatocyte nuclear factor 3-beta (Homo sapiens)" assigned_class=-1

* * *

# experiment-notes: Tanguay_ZF_120hpf_EDEM: Oregon State University Tanguay Lab 120 Hour Post-fertilization zebrafish Assay for Edema Malformation (AID 2284400)
The source made the active and inactive calls. How the source made its calls: active means hit-call score of the fitted dose curve at least 0.9, where 1 is the maximum; inactive means score below 0.9.
Possible outcomes: 1.0 (active), 0.0 (inactive)

compound=OCCCC(F)(F)C(F)(F)C(F)(F)C(F)(F)C(F)(F)C(F)(F)C(F)(F)C(F)(F)F assigned_class=0.0
compound=NC(=O)C(F)(F)C(F)(F)C(F)(F)F assigned_class=0.0
compound=OC(O)C(F)(F)C(F)(F)F assigned_class=0.0
compound=O=S(=O)(OCC(F)(F)F)C(F)(F)C(F)(F)C(F)(F)C(F)(F)F assigned_class=0.0
compound=C=CC(=O)OCCC(F)(F)C(F)(F)C(F)(F)C(F)(F)F assigned_class=0.0
compound=CNS(=O)(=O)C(F)(F)C(F)(F)C(F)(F)C(F)(F)C(F)(F)C(F)(F)C(F)(F)C(F)(F)F assigned_class=1.0
compound="FC(F)(F)C(F)(F)C(F)(F)CC1CO1 (stereo not given)" assigned_class=0.0
compound=O=C(O)C(F)(F)C(F)(F)C(F)(F)C(=O)O assigned_class=0.0
compound=OCC(F)(F)C(F)(F)C(F)(F)C(F)(F)C(F)(F)C(F)(F)C(F)(F)C(F)(F)CO assigned_class=0.0
compound=NC(=O)C(F)(F)C(F)(F)C(F)(F)C(F)(F)C(F)(F)C(F)(F)C(F)(F)F assigned_class=0.0
compound="COC(F)(C(F)F)C(F)(F)F (stereo not given)" assigned_class=0.0
compound=CCOC(=O)CC(=O)C(F)(F)C(F)(F)F assigned_class=0.0
compound=CN(C(=O)C(F)(F)C(F)(F)C(F)(F)F)[Si](C)(C)C assigned_class=0.0
compound=O=S(=O)(O)CCC(F)(F)C(F)(F)C(F)(F)C(F)(F)F assigned_class=0.0
compound=NC(=O)C(F)(F)C(F)(F)C(F)(F)C(F)(F)C(N)=O assigned_class=0.0
compound=NC(=O)C(F)(F)C(F)(F)C(F)(F)C(F)F assigned_class=0.0
compound=CO[Si](C)(CCC(F)(F)C(F)(F)C(F)(F)C(F)(F)C(F)(F)C(F)(F)F)OC assigned_class=0.0
compound=O=C(O)CCC(F)(F)C(F)(F)C(F)(F)C(F)(F)C(F)(F)C(F)(F)C(F)(F)F assigned_class=0.0
compound=FC(F)(F)C(F)(F)C(F)(F)C(F)(F)C(F)(F)C(F)(F)CC[Si](Cl)(Cl)Cl assigned_class=0.0
compound="OCC(O)CC(F)(F)C(F)(F)C(F)(F)C(F)(F)C(F)(F)C(F)(F)C(F)(F)C(F)(F)F (stereo not given)" assigned_class=1.0

* * *

# experiment-notes: CCTE_Padilla_ZF_Score.Any: CCTE's 144 Hour Post-fertilization zebrafish Assay Score for Any Mortality or Malformation, Padilla Lab (AID 2284416)
Activity calls are given as the source filed them. Rule for the calls: active = hit-call score of the fitted dose curve at least 0.9, where 1 is the maximum; inactive = score below 0.9.
measured-quantity: AC50

compound="OCC(O)CC(F)(F)C(F)(F)C(F)(F)C(F)(F)F (configuration not stated)" val=inactive
compound=CNS(=O)(=O)C(F)(F)C(F)(F)C(F)(F)C(F)(F)C(F)(F)C(F)(F)C(F)(F)C(F)(F)F val="0.778 µM (active)"
compound=O=C(O)C(F)(F)C(F)(F)C(F)(F)OC(F)(C(F)(F)F)C(F)(F)F val=inactive
compound=OCC(F)(F)C(F)(F)C(F)(F)CO val=inactive
compound=O=S(=O)(OCC(F)(F)F)C(F)(F)C(F)(F)C(F)(F)C(F)(F)F val="33.3 µM (active)"
compound=NC(=O)C(F)(F)C(F)(F)C(F)(F)C(F)(F)C(F)(F)C(F)(F)C(F)(F)F val=inactive
compound=O=C(O)C(F)(F)C(F)(F)C(F)(F)C(=O)O val=inactive
compound=NCC(F)(F)C(F)(F)C(F)(F)C(F)(F)C(F)(F)C(F)(F)F val="75.3 µM (active)"
compound=OCCCCC(F)(F)C(F)(F)C(F)(F)C(F)(F)F val="29 µM (active)"
compound=NC(=O)C(F)(F)C(F)(F)C(F)(F)C(F)(F)C(N)=O val=inactive
compound=O=C(F)C1(F)C(F)(F)C(F)(F)C(F)(F)C(F)(F)C1(F)F val=inactive
compound=O=C(O)CCC(F)(F)C(F)(F)C(F)(F)C(F)(F)C(F)(F)C(F)(F)C(F)(F)F val=inactive
compound=O=S(=O)(O)CCC(F)(F)C(F)(F)C(F)(F)C(F)(F)F val=inactive
compound=C=CC(=O)OCC(F)(F)C(F)(F)C(F)(F)C(F)(F)C(F)(F)C(F)(F)C(F)(F)C(F)F val=inactive
compound="OCC(O)CC(F)(F)C(F)(F)C(F)(F)C(F)(F)C(F)(F)C(F)(F)C(F)(F)C(F)(F)F (configuration not stated)" val="9.82 µM (active)"
compound=O=C(O)C(F)(F)OC(F)(F)C(F)(F)OC(F)(F)C(F)(F)OC(F)(F)F val=inactive
compound="COC(F)(C(F)F)C(F)(F)F (configuration not stated)" val=inactive
compound=O=C(Cl)C(F)(F)C(F)(F)C(F)(F)C(F)(F)C(F)(F)C(F)(F)F val="76.8 µM (active)"
compound=NC(=O)C(F)(F)C(F)(F)C(F)(F)C(F)F val=inactive
compound=OCCCC(F)(F)C(F)(F)C(F)(F)C(F)(F)C(F)(F)C(F)(F)C(F)(F)C(F)(F)F val=inactive
compound=CN(C(=O)C(F)(F)C(F)(F)C(F)(F)F)[Si](C)(C)C val=inactive
compound="FC(F)(F)C(F)(F)C(F)(F)CC1CO1 (configuration not stated)" val=inactive
compound=OC(O)C(F)(F)C(F)(F)F val=inactive
compound=CCOC(=O)CC(=O)C(F)(F)C(F)(F)F val=inactive
compound=C=CC(=O)OCC(F)(F)C(F)(F)C(F)(F)COC(=O)C=C val="8.95 µM (active)"
compound=O=S(=O)(O)CCC(F)(F)C(F)(F)C(F)(F)C(F)(F)C(F)(F)C(F)(F)C(F)(F)C(F)(F)F val=inactive
compound=O=C(O)CCC(F)(F)C(F)(F)C(F)(F)F val="77.1 µM (active)"

These entries and their values trace back to PubChem BioAssay (EPA / NIEHS).
